- System: Human CD8+ T cells
- METHOD_SUMMARY: Reversal of AMP-mediated suppression of CD8+ T cells
- Format: cell-based
- DETAILS: T-cell, 96 h, 20 μM AMP, 4 days, flow cytometry, read-out: EC50 for CD8+ T cell proliferation
MEASUREMENT_LABEL: pEC50
Scale: negative log10 of molar concentration, which is what pEC50 denotes.

Field request: pEC50 | item: C#C[C@@]1(O)[C@@H](COC(Cc2ccc(N3CCCNC3=O)cc2)(C(=O)O)C(=O)O)O[C@@H](n2cnc3c(N)nc(Cl)nc32)[C@@H]1O
7.94

---

- TARGET_OR_TEST_SYSTEM: recombinant CD73 (Homo sapiens (Human))
- METHOD_SUMMARY: Assay 2: Inhibition of the CD73 enzyme in vitro (0.05 nM CD73, 1 hour 37° C., Malachite Green)
- Assay type: biochemical
- DETAILS: 0.05 nM CD73, 50 μM AMP, 1 hour at 37° C.
For each entry below, report its pIC50 value.
API: returns pIC50 as number; meaning -log10 of concentration in mol/L.

Fill in: pIC50 of C#C[C@@]1(O)[C@@H](COC(Cc2ccc(N3CCN(C)CC3=O)cc2)(C(=O)O)C(=O)O)O[C@@H](n2cnc3c(N)nc(Cl)nc32)[C@@H]1O [Example 154] is ___
8.70

Which value of pIC50 has been reported for C#C[C@@]1(O)[C@@H](COC(Cc2ccccc2)(C(=O)O)C(=O)O)O[C@@H](n2cnc3c(-c4cnn(S(=O)(=O)c5ccc(C)cc5)c4)nc(Cl)nc32)[C@@H]1O [Example 159] in the records?
6.32

# input molecule: C#C[C@@]1(O)[C@@H](COC(Cc2ccccc2)(C(=O)O)C(=O)O)O[C@@H](n2cnc3c(N(C)CC)nc(Cl)nc32)[C@@H]1O [Example 66] ; wanted: its pIC50
9.52

// pIC50 lookup, key: C#C[C@@]1(O)[C@@H](COC(Cc2nc3ccccc3s2)(C(=O)O)C(=O)O)O[C@@H](n2cnc3c(NCc4ccc(F)cc4)nc(Cl)nc32)[C@@H]1O [Example 112]
5.87

Please report the recorded pIC50 for C#C[C@@]1(O)[C@@H](COC(Cc2ccc(-c3cccn(CCOC)c3=O)cc2)(C(=O)O)C(=O)O)O[C@@H](n2cnc3c(N)nc(Cl)nc32)[C@@H]1O [Example 146] .
9.39

Find the recorded pIC50 belonging to C#C[C@@]1(O)[C@@H](COC(Cc2ccccc2)(C(=O)O)C(=O)O)O[C@@H](n2cnc3c(NCC4(O)CCC4)nc(Cl)nc32)[C@@H]1O [Example 40] and report it.
8.52

---

- TARGET_OR_TEST_SYSTEM: recombinant CD73 (Homo sapiens (Human))
- METHOD_SUMMARY: Assay 2: Inhibition of the CD73 enzyme in vitro (0.05 nM CD73, 1 hour 37° C., Malachite Green)
- Format: biochemical
- DETAILS: 0.05 nM CD73, 50 μM AMP, 1 hour at 37° C.
MEASUREMENT_LABEL: pIC50
Lab note — pIC50 values are minus log10 of concentrations in M.

# query: pIC50 of entry C#C[C@@]1(O)[C@@H](COC(Cc2cccs2)(C(=O)O)C(=O)O)O[C@@H](n2cnc3c(N)nc(Cl)nc32)[C@@H]1O
8.22

# pIC50 lookup, item C#C[C@@]1(O)[C@@H](COC(Cc2ccccc2)(C(=O)O)C(=O)NC)O[C@@H](n2cnc3c(NCc4ccccc4)nc(Cl)nc32)[C@@H]1O (stereo partly drawn)
6.30

For the molecule shown here, C#C[C@@]1(O)[C@@H](COC(Cc2ccsc2)(C(=O)O)C(=O)O)O[C@@H](n2cnc3c(NC(C)C)nc(Cl)nc32)[C@@H]1O , give the reported pIC50.
8.70

Which pIC50 is reported for this molecule? C#C[C@@]1(O)[C@@H](COC(C)(C(=O)O)C(=O)O)O[C@@H](n2cnc3c(N)nc(Cl)nc32)[C@@H]1O
6.46

Item C#C[C@@]1(O)[C@@H](COC(Cc2ccccc2)(C(=O)O)C(=O)O)O[C@@H](n2cnc3c(N)nc(C(C)O)nc32)[C@@H]1O (stereo partly drawn) has what recorded pIC50?
6.25

---

Task for the reader: assign each of the following compounds its reported IC50.
- TARGET_OR_TEST_SYSTEM: recombinant CD73 (Homo sapiens (Human))
- METHOD_SUMMARY: Assay 2: Inhibition of the CD73 enzyme in vitro (0.05 nM CD73, 1 hour 37° C., Malachite Green)
- Type: biochemical
- DETAILS: 0.05 nM CD73, 50 μM AMP, 1 hour at 37° C.
Output spec: scalar in nM, unitless text.

Fill in: IC50 of C#C[C@@]1(O)[C@@H](COC(Cc2ccc(-c3cccn(CCO)c3=O)cc2)(C(=O)O)C(=O)O)O[C@@H](n2cnc3c(N)nc(Cl)nc32)[C@@H]1O is ___
0.3

Entry C#C[C@@]1(O)[C@@H](COC(Cc2ccccc2)(C(=O)O)C(=O)O)O[C@@H](n2cnc3c(NC4(CO)CC4)nc(Cl)nc32)[C@@H]1O : reported IC50 = ?
2

I'd like to know its IC50. The compound in question is C#C[C@@]1(O)[C@@H](COC(Cc2ccc(N3CCCNC3=O)cc2)(C(=O)O)C(=O)O)O[C@@H](n2cc(C)c(=O)[nH]c2=O)[C@@H]1O
7

Could you tell me which IC50 is on file for C#C[C@@]1(O)[C@@H](COC(Cc2ccc(N3CCCNC3=O)cc2)(C(=O)O)C(=O)O)O[C@@H](n2cnc3c(NCC4CC4)nc(Cl)nc32)[C@@H]1O ?
0.24

Quick one: IC50 of C#C[C@@]1(O)[C@@H](COC(Cc2ccc(N3CCCNC3=O)cc2)(C(=O)O)C(=O)O)O[C@@H](n2cnc3c(NCc4ccc(OC)cc4OC)cc(Cl)nc32)[C@@H]1O ?
0.14

---

- TARGET_OR_TEST_SYSTEM: recombinant CD73 (Homo sapiens (Human), UniProt P21589)
- Sequence (P21589 27-547): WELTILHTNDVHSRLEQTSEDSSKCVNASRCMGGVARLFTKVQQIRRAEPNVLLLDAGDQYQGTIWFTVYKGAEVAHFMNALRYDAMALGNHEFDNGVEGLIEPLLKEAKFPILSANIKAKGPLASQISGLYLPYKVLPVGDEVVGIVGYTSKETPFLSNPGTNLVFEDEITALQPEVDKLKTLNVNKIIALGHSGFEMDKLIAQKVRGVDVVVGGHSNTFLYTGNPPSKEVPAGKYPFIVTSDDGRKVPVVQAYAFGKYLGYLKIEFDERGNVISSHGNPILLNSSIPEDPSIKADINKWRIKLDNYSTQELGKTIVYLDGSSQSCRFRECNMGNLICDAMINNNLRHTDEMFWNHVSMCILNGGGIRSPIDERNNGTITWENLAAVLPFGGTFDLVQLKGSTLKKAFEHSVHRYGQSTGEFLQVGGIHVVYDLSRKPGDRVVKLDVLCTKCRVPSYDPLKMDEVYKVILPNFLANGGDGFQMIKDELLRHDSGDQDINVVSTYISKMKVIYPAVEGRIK
- METHOD_SUMMARY: Assay 2: Inhibition of the CD73 enzyme in vitro (0.05 nM CD73, 1 hour 37° C., Malachite Green)
- Format: biochemical
- DETAILS: 0.05 nM CD73, 50 μM AMP, 1 hour at 37° C.
MEASUREMENT_LABEL: IC50 (nM)
Lab book: enter the figure in nM, no units written.

# lookup: IC50 of C#C[C@@]1(O)[C@@H](COC(Cc2ccccc2)(C(=O)O)C(=O)O)O[C@@H](n2cnc3c(N[C@@H](C)CC)nc(Cl)nc32)[C@@H]1O
2

I'd like to know its IC50. The compound in question is C#C[C@@]1(O)[C@@H](COC(Cc2ccc(N3CCCN(CCC)C3=O)cc2)(C(=O)O)C(=O)O)O[C@@H](n2cnc3c(N)nc(Cl)nc32)[C@@H]1O
0.05

Using the record for C#C[C@@]1(O)[C@@H](COC(Cc2ccccc2)(C(=O)O)C(=O)O)O[C@@H](n2cnc3c(N[C@H](C)CO)nc(Cl)nc32)[C@@H]1O , report its IC50.
2

---

- TARGET_OR_TEST_SYSTEM: recombinant CD73 (Homo sapiens (Human), UniProt P21589)
- METHOD_SUMMARY: Assay 2: Inhibition of the CD73 enzyme in vitro (0.05 nM CD73, 1 hour 37° C., Malachite Green)
- Type: biochemical
- DETAILS: 0.05 nM CD73, 50 μM AMP, 1 hour at 37° C.
hey, just use criterion met if measured IC50 is less than 2 nM, otherwise criterion not met

Could you please tell me whether IC50 recorded for C#C[C@@]1(O)[C@@H](COC(Cc2ccsc2)(C(=O)O)C(=O)O)O[C@@H](n2cnc3c(NCCO)nc(Cl)nc32)[C@@H]1O is less than 2 nM?
criterion not met

Regarding C#C[C@@]1(O)[C@@H](COC(Cc2ccc(N3CCCNC3=O)cc2)(C(=O)O)C(=O)O)O[C@@H](n2cnc3c(N)cc(Cl)nc32)[C@@H]1O , kindly confirm whether its IC50 is beneath 2 nM.
criterion met

Item C#C[C@@]1(O)[C@@H](COC(Cc2ccc(-c3ccccc3)cc2)(C(=O)O)C(=O)O)O[C@@H](n2cnc3c(N)nc(Cl)nc32)[C@@H]1O : IC50 beneath 2 nM, strictly?
criterion met

# TODO verify IC50 < 2 nM strictly for this compound: C#C[C@@]1(O)[C@@H](COC(Cc2ccccc2)(C(=O)O)C(=O)O)O[C@@H](n2cnc3c(N4CCC4)nc(Cl)nc32)[C@@H]1O
criterion met

Is it true that IC50 reported for C#C[C@@]1(O)[C@@H](COC(Cc2ccccc2)(C(=O)O)C(=O)O)O[C@@H](n2cnc3c(N4CC[C@H](O)C4)nc(Cl)nc32)[C@@H]1O is less than 2 nM?
criterion met

Identify whether the compound C#C[C@@]1(O)[C@@H](COC(Cc2ccccc2)(C(=O)O)C(=O)O)O[C@@H](n2cnc3c(N(C)CCOC)nc(Cl)nc32)[C@@H]1O records IC50 below 2 nM.
criterion not met

Hi there! Is IC50 for C#C[C@@]1(O)[C@@H](COC(Cc2ccccc2)(C(=O)O)C(=O)O)O[C@@H](n2cnc3c(NC(C)C)cc(Cl)nc32)[C@@H]1O below 2 nM, do you know?
criterion not met

Please indicate whether the reported IC50 of C#C[C@@]1(O)[C@@H](COC(Cc2ccccc2)(C(=O)O)C(=O)O)O[C@@H](n2cnc3ccc(Cl)nc32)[C@@H]1O is strictly below 2 nM.
criterion met
